# method.notes: Retention time of the compound by HPLC analysis
# Assay type: physicochemical
A collection of compounds and their measured Retention_time

{"columns": ["compound.string", "unit.spec", "Retention_time"],
 "data": [
  ["CC[C@H](C)[C@H]1COC[C@@H](NC(=O)c2nc3ccccc3cc2O)C(=O)N2CCCC[C@H]2C(=O)NCC(=O)N(C)CC(=O)N(C)[C@@H](C(C)C)C(=O)NC[C@@H](NC(=O)c2nc3ccccc3cc2O)C(=O)N2CCCC[C@H]2C(=O)NCC(=O)N(C)CC(=O)N1C", "min", 19.4],
  ["CC(C)[C@H]1C(=O)NC[C@@H](NC(=O)c2nc3ccccc3cc2O)C(=O)N2CCCC[C@H]2C(=O)NCC(=O)N(C)CC(=O)N(C)C2(CCC2)C(=O)NC[C@@H](NC(=O)c2nc3ccccc3cc2O)C(=O)N2CCCC[C@H]2C(=O)NCC(=O)N(C)CC(=O)N1C", "min", 17]
]}
